# Experimental system: purified human, His-tagged PRC2 complex (Homo sapiens (Human), UniProt O75530)
# Sequence (Q15910 whole entry): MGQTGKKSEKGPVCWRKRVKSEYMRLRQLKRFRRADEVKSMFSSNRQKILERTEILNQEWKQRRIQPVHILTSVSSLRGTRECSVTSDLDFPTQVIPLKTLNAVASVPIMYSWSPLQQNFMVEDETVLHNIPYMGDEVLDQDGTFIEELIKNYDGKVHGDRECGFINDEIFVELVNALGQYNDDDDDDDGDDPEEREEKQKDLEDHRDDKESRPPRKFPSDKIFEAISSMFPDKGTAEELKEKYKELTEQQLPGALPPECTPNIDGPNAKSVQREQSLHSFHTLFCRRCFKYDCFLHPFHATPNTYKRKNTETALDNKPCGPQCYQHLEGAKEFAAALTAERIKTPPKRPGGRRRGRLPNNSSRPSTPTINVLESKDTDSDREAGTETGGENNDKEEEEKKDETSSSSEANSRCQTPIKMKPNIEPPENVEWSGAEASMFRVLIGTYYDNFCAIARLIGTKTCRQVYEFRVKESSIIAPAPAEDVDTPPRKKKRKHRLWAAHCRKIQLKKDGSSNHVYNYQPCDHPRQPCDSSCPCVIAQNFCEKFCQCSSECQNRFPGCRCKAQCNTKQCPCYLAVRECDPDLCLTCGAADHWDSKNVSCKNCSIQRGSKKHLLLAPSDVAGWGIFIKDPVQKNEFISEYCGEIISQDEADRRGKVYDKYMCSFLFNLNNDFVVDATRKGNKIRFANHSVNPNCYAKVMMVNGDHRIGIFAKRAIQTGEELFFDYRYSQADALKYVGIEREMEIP
# Sequence (O75530 whole entry): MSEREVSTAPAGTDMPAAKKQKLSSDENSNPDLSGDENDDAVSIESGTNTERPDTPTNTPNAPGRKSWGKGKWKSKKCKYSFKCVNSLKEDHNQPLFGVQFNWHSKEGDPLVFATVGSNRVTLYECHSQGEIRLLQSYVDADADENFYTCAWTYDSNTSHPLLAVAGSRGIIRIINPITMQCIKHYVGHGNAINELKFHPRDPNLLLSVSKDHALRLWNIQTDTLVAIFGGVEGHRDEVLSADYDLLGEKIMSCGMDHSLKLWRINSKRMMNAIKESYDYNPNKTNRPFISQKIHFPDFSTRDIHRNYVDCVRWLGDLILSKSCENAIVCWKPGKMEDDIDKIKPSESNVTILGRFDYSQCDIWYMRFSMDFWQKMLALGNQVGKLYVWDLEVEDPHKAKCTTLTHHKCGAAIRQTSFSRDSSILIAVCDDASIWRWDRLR
# Sequence (Q15022 whole entry partner): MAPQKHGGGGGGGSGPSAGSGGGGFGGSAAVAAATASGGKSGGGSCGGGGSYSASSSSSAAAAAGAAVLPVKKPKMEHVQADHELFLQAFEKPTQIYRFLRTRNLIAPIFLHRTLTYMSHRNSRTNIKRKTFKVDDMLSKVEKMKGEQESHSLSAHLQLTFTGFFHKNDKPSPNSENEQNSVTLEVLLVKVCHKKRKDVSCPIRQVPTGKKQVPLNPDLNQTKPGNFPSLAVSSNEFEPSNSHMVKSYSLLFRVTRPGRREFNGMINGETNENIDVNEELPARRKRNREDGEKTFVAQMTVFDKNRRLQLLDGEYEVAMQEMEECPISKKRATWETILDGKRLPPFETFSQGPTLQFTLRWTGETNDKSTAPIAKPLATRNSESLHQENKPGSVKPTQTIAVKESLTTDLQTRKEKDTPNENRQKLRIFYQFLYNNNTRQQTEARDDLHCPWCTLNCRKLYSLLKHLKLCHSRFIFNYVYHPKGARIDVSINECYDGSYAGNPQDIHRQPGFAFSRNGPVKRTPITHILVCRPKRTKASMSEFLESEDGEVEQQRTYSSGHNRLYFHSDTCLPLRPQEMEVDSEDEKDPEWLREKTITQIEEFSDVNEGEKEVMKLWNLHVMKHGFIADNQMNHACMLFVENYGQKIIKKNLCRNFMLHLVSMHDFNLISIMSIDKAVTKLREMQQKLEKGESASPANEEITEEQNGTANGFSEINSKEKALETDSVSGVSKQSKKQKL
# Sequence (Q6ZN18 whole entry partner): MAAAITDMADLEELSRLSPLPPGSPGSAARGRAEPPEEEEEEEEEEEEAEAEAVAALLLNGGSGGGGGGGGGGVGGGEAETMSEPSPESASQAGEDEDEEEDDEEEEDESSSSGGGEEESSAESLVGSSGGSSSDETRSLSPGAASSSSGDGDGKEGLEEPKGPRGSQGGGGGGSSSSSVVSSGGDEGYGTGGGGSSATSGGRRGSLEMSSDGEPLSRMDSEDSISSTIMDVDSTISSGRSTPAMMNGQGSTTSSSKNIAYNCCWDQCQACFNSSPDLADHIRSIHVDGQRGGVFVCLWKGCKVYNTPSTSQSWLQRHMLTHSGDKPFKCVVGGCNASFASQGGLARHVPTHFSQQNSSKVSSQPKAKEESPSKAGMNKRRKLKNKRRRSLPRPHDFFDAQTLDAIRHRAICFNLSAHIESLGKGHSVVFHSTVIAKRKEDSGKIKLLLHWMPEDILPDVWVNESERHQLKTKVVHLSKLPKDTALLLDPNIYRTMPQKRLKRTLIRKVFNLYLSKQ
# Sequence (Q09028 whole entry partner): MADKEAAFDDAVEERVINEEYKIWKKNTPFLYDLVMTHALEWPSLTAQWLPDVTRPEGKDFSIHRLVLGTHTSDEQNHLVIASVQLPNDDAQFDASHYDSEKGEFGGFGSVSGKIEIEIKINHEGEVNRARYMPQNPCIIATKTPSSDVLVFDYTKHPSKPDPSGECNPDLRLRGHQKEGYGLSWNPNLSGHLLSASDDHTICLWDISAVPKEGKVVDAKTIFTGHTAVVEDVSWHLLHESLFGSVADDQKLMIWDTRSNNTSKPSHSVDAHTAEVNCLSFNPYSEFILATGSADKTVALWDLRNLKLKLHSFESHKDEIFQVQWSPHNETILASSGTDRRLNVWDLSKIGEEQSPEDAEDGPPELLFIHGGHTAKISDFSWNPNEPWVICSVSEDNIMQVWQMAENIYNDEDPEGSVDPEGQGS
# Test protocol: Hot Spot HMT assay, inhibition of PRC2 enzymatic activity
# Condition context: 10 nM PRC2 complex, 0.05 mg/ml core histone H3, 1 μM 3H-SAM, 1 hr at 30° C.; read-out: IC50, Inhibition of PRC2-mediated Enzymatic Activity
Property name: IC50

Sample records with IC50:
CN(C)CCn1nccc1-c1cnc(NCc2c(F)ccc3c2CCO3)c2cnncc12: > 0.25 µM
CN1CCc2cc(-c3cnc(NCc4c(F)ccc5c4CCO5)c4cnncc34)ccc2C1: < 0.1 µM
CN(C)CCn1nccc1-c1cnc(NCc2c(F)ccc3c2CCO3)c2c[nH]c(=O)cc12: > 0.25 µM
CN(C)C(=O)c1cc(-c2cnc(NCc3c(F)ccc4c3CCO4)c3cnncc23)n(C)n1: < 0.1 µM
Cc1cc(-c2cnc(NCc3c(F)ccc4c3CCO4)c3cncnc23)n(C)n1: < 0.1 µM

Could I get IC50 for every one of these entries?
1. CN(C)Cc1ccc(-c2cnc(NCc3c(F)ccc4c3CCO4)c3cnncc23)cc1F
2. CNCc1ccc(-c2cnc(NCc3c(F)ccc4c3CCO4)c3cncnc23)c(C)c1
3. Cc1cc(-c2cnc(NCc3c(F)ccc4c3CCO4)c3cnncc23)n(C)n1

Result:
1. < 0.1 µM
2. < 0.1 µM
3. < 0.1 µM

* * *

What pIC50 was measured for each of the following?
# Experimental system: purified human, His-tagged PRC2 complex (Homo sapiens (Human), UniProt O75530)
# Test protocol: Hot Spot HMT assay, inhibition of PRC2 enzymatic activity
# Condition context: 10 nM PRC2 complex, 0.05 mg/ml core histone H3, 1 μM 3H-SAM, 1 hr at 30° C.; read-out: IC50, Inhibition of PRC2-mediated Enzymatic Activity
pIC50: −log10 of the molar value.

Check out these entries, answers already filled in.
Cc1cc(-c2cnc(NCc3c(F)ccc4c3CCO4)c3ncncc23)n(C)n1: < 6.60
CN(C)C(=O)c1cc(-c2cnc(NCc3c(F)ccc4c3CCO4)c3cnccc23)n(C)n1: > 7.00
Cc1cc(-c2cnc(NCc3c(F)ccc4c3CCO4)c3cnc(N(C)C)cc23)n(C)n1: 6.60 to 7.00
Cc1cc(CN(C)C)ccc1-c1cnc(NCc2c(F)ccc3c2CCO3)c2cncnc12: > 7.00
Cc1c(-c2cnc(NCc3c(F)ccc4c3CCO4)c3cnncc23)ccc(CN(C)C)c1F: < 6.60

For each listed entry, give its pIC50.
1. Cc1ncccc1-c1cnc(NCc2c(F)ccc3c2CCO3)c2c[nH]c(=O)cc12
2. O=c1cc2c(-c3ccc(CN4CCCC4)cc3)cnc(NCc3c(F)ccc4c3CCO4)c2c[nH]1
3. CNCc1ccc(-c2cnc(NCc3c(F)ccc4c3CCO4)c3cnncc23)c(C)c1

Result:
1. < 6.60
2. 6.60 to 7.00
3. > 7.00

* * *

# Tested on: PRC2-mediated histone H3 methylation in Pfeiffer cells (EZH2 A677G)
# Test protocol: Tri-Methyl Histone H3 (Lys 27) sandwich ELISA in Pfeiffer cells
# Type: cell-based
# Condition context: Homo sapiens, 96 hours incubation, H3K27me3 ELISA, read-out: IC50 (nM), Inhibition of EZH2-mediated Histone H3 Trimethylation
Property name: IC50

CN(C)Cc1ccc(-c2cnc(NCc3c(F)ccc4c3CCO4)c3cnncc23)cc1F [Example 14]: ≤ 100 nM
Cc1cc(-c2cnc(NCc3c(F)ccc4c3CCO4)c3ncncc23)n(C)n1 [Example 59]: > 500 nM
Cc1cc(S(C)(=O)=O)ccc1-c1cnc(NCc2c(F)ccc3c2CCO3)c2cnccc12 [Example 31]: > 500 nM

Now for a further compound.
Noted for Cc1cc(CN(C)C)ccc1-c1cnc(NCc2c(F)ccc3c2CCO3)c2cnncc12 [Example 6] : its IC50 reads ≤ 100 nM

The values you see were collected from patent US12421228B2.
